- experiment: A CellTox Green Cytotoxicity Assay to monitor cytotoxicity in HepG2 cells - 8 hour (AID 1224890); also: nearly all actives have a fitted effect of over 45% in size
- experimental setup: CellTox Green fluorescence; series mostly up to 76.8 µM
- From the text: National Center for Advancing Translational Sciences [NCATS] NIH Chemical Genomics Center [NCGC] U.S. Environmental Protection Agency [EPA] National Institutes of Environmental Health Sciences [NIEHS] National Toxicology Program [NTP] Cell-based models are critical for drug discovery. […] Viable cells produce no appreciable increases in fluorescence. Therefore, the fluorescence signal produced by the binding interaction with dead cell DNA is proportional to cytotoxicity. […]
Inconclusive results are not listed. Calls of active or inactive are those of the source. Calls follow the shape of the dose curve; as a rule, active = well fitted activation curve with a large enough effect in the repeat runs; inconclusive = weak or mixed curves; inactive = flat fitted curve, though single readings scatter.
Use one of these outcomes when replying: active, inactive

Input: Per the assay record, what outcome was assigned to Oc1ccc2c(c1)CCC2 ?
Output: inactive

Input: Another molecule to check: CC1(C)[C@H](C(=O)OCc2cccc(Oc3ccccc3)c2)[C@@H]1C=C(Cl)Cl
Output: inactive

Input: Another molecule to check: CCSCC
Output: inactive

Input: Another molecule to check: Nc1c(Br)cc([N+](=O)[O-])cc1Br
Output: inactive

Input: Another molecule to check: CC(O)(c1ccc(Cl)cc1)c1ccc(Cl)cc1
Output: active

Input: Another molecule to check: COc1cc(/C=C/C(=O)CC(=O)/C=C/c2ccc(O)c(OC)c2)ccc1O
Output: active

Input: Another molecule to check: Cc1ccc(C=O)cc1
Output: inactive

Input: Another molecule to check: CCc1cccc(CC)c1
Output: inactive

Input: Another molecule to check: C=C1CC[C@H]2O[C@]2(C)CC[C@@H]2[C@@H]1CC2(C)C
Output: inactive

Input: Another molecule to check: CN(C[C@@H](CC[N+]12CCC(C3CCCCC3)(CC1)CC2)c1ccc(Cl)c(Cl)c1)C(=O)c1cc(C(F)(F)F)cc(C(F)(F)F)c1
Output: active

Input: Another molecule to check: Cc1ccc2n[nH]nc2c1
Output: inactive

Input: Another molecule to check: COc1cc([C@@H]2c3cc4c(cc3[C@@H](O[C@@H]3O[C@@H]5CO[C@@H](C)O[C@H]5[C@H](O)[C@H]3O)[C@H]3COC(=O)[C@H]23)OCO4)cc(OC)c1O
Output: inactive

Input: Another molecule to check: NCc1ccco1
Output: inactive

Input: Another molecule to check: C=C1C(CCl)(CCl)C2(Cl)C(Cl)C(Cl)C1(Cl)C2(Cl)Cl (stereo not given)
Output: inactive

Input: Another molecule to check: CCN(CC)c1ccc2c(c1)Oc1cc(N(CC)CC)ccc1C21OC(=O)c2ccccc21
Output: active

Input: Another molecule to check: Nc1ccc(Cl)c([N+](=O)[O-])c1
Output: inactive

Input: Another molecule to check: CCN(CC)c1ccc(C=O)cc1
Output: inactive

Input: Another molecule to check: CC(C)C(=O)C(C)C
Output: inactive

Input: Another molecule to check: Cc1ccc2nc(-c3ccc(N)cc3)sc2c1S(=O)(=O)O
Output: inactive

Input: Another molecule to check: C1CCSC1
Output: inactive
